Could you please report measured cytotoxicity at 10 µM for the items listed next?
- ASSAY_INFO: Toxicity liver stage against HepG2, at 10uM
- Format: cell-based
- Parameters: test concentration 10 uM, cell line HepG2-A16-CD81EGFP
- CONDITION_PARAMETERS: human, HepG2-A16-CD81EGFP cells; read-out: INHIBITION
A number alone suffices; assume %.

Exercise: Quick check: cytotoxicity at 10 µM of CCCn1ccnc1-c1nccn1CCn1cnnc1 ?
Solution: -3.53

Exercise: Look up cytotoxicity at 10 µM for this compound: CN(C)c1nc2c(c(N(C)C)n1)CCN(C(=O)CN1CCC(O)CC1)C2
Solution: 5.31

Exercise: For the compound COCCN1CCN(c2nc(O)cc(Cc3ccccc3F)n2)CC1 , what cytotoxicity at 10 µM is on record?
Solution: -4.52

Exercise: For the compound shown here, CCCN1C[C@@H]2CC[C@H]1CN(C(=O)Cn1c(C)cc(C)nc1=O)C2 , give the reported cytotoxicity at 10 µM.
Solution: -4.57

Exercise: Please report the recorded cytotoxicity at 10 µM for Cn1cc(C(=O)N[C@@H]2CN(Cc3cccs3)[C@@H]3CCCO[C@@H]32)cn1 .
Solution: -13.4

Exercise: // query cytotoxicity at 10 µM value for entry COCCN1C[C@H]2[C@@H](C1)N(C(=O)COc1ccccc1)CC[C@H]2OC
Solution: -1.34
